Entry source: patent US20240228660A1

# kon values compiled below
tested-target: human full-length VWF (human, UniProt P04275 764-2813)
method-description: SPR, Biacore T200, antibody captured on Protein A, full-length VWF as analyte, single-cycle kinetics
Your answer should be a plain number; it is taken to be in M⁻¹ s⁻¹.

4-H3_H3_VL-par (antibody, human IgG1, kappa, V domains shown, also called 4-H3_H3 (hIgG1)) VH: QVQLVESGGGVVQPGRSLRLSCAASGIDLTSNAMNWVRQAPGKGLEWIGGIYGHDTSYYAAWAKGRFTISRDNSKNTVYLQMNSLRAEDTAVYYCARGFIYFDIWGQGTLVTVSS VL: AYDMTQTPPSLSASVGETVRIRCLASEDIASGISWYQQKPGKPPTLLIYGASNLESGVPPRFSGSGSGTDYTLTIGGVQAEDAATYYCLGGYSFSSNGLTFGAGTKVEIKT :: 54200
1-D5_H1_L0 (antibody, human IgG1, kappa, V domains shown, humanised, human IgG1 kappa) VH: QVQLVESGGGVVQPGRSLRLSCAASGFSLNNYIMGWVRQAPGKGLEWVAIISTGGSTYYASWAKGRFTISRDNSKNTLYLQMNSLRAEDTAVYYCARGGSSAGAGFNIWGQGTLVTVSS VL: DIQMTQSPSSLSASVGDRVTITCQASQSINSGLAWYQQKPGKAPKLLIYKASTLASGVPSRFSGSGSGTDFTLTISSLQPEDFATYYCQSYHYISANGATFGGGTKVEIKT :: 77900
4-H3_H4_L0 (antibody, human IgG1, kappa, V domains shown, humanised, human IgG1 kappa) VH: QVQLVESGGGVVQPGRSLRLSCAASGIDLTSNAMNWVRQAPGKGLEWVAGIYGHDTSYYAAWAKGRFTISRDNSKNTLYLQMNSLRAEDTATYFCARGFIYFDIWGQGTLVTVSS VL: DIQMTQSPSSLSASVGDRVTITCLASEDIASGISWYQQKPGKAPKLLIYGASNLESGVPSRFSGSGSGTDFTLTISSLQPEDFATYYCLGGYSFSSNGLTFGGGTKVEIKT :: 27100
1-D5_H1_VL-par (antibody, human IgG1, kappa, V domains shown, also called 1-D5_H1 (hIgG1)) VH: QVQLVESGGGVVQPGRSLRLSCAASGFSLNNYIMGWVRQAPGKGLEWVAIISTGGSTYYASWAKGRFTISRDNSKNTLYLQMNSLRAEDTAVYYCARGGSSAGAGFNIWGQGTLVTVSS VL: DIVMTQTPSSVSAAVGDTVTIQCQASQSINSGLAWYQQKPGQPPKRLIYKASTLASGVPSRFRGSGSGTDFTLTISDLECADAATYYCQSYHYISANGATFGGGTEVVVET :: 78000
4-H3_H0_VL-par (antibody, human IgG1, kappa, V domains shown, also called 4-H3_H0 (hIgG1)) VH: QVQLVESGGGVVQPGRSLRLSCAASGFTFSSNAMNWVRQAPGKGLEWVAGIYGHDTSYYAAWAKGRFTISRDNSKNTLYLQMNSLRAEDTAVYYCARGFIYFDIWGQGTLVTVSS VL: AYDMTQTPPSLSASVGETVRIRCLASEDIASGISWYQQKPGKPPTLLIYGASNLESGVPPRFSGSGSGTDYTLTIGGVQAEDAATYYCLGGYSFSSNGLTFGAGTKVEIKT :: 22100
4-H3_H3_L0 (antibody, human IgG1, kappa, V domains shown, humanised, human IgG1 kappa) VH: QVQLVESGGGVVQPGRSLRLSCAASGIDLTSNAMNWVRQAPGKGLEWIGGIYGHDTSYYAAWAKGRFTISRDNSKNTVYLQMNSLRAEDTAVYYCARGFIYFDIWGQGTLVTVSS VL: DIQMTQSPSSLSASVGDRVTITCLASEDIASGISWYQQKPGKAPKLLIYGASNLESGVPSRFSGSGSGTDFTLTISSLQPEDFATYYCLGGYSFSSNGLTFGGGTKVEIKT :: 75600
1-D5_H0_L0 (antibody, human IgG1, kappa, V domains shown, humanised, human IgG1 kappa) VH: QVQLVESGGGVVQPGRSLRLSCAASGFTFSNYIMGWVRQAPGKGLEWVAIISTGGSTYYASWAKGRFTISRDNSKNTLYLQMNSLRAEDTAVYYCARGGSSAGAGFNIWGQGTLVTVSS VL: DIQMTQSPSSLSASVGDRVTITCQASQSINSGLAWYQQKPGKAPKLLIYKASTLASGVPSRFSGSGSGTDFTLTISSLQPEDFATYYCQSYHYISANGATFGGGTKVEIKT :: 75200
1-D5_H2_VL-par (antibody, human IgG1, kappa, V domains shown, also called 1-D5_H2 (hIgG1)) VH: QQQLVESGGGVVQPGRSLRLSCAASGFSLNNYIMGWVRQAPGKGLEYIGIISTGGSTYYASWAKGRFTISRDSNTMYLQMNSLRAEDTATYFCARGGSSAGAGFNIWGQGTLVTVSS VL: DIVMTQTPSSVSAAVGDTVTIQCQASQSINSGLAWYQQKPGQPPKRLIYKASTLASGVPSRFRGSGSGTDFTLTISDLECADAATYYCQSYHYISANGATFGGGTEVVVET :: 135000
1-D5_H0_L1 (antibody, human IgG1, kappa, V domains shown, humanised, human IgG1 kappa) VH: QVQLVESGGGVVQPGRSLRLSCAASGFTFSNYIMGWVRQAPGKGLEWVAIISTGGSTYYASWAKGRFTISRDNSKNTLYLQMNSLRAEDTAVYYCARGGSSAGAGFNIWGQGTLVTVSS VL: DIQMTQSPSSLSASVGDRVTITCQASQSINSGLAWYQQKPGKAPKRLIYKASTLASGVPSRFSGSGSGTDFTLTISSLQPEDFATYYCQSYHYISANGATFGGGTKVEIKT :: 169000

With those in mind, consider the next binder.
**Query** Entry under review: 1-D5_VH-par_L0 (antibody, human IgG1, kappa, V domains shown, also called 1-D5_L0 (hIgG1K)) VH: QQQLVESGGRLVTPGTPLTLTCAVSGFSLNNYIMGWVRQAPGKGLEYIGIISTGGSTYYASWAKGRFTISRTSTTMDLKMTSLTTEDTATYFCARGGSSAGAGFNIWGPGTLVTVSS VL: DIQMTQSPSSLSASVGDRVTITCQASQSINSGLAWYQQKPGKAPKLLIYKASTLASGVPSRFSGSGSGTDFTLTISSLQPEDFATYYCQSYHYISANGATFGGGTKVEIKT . Reported kon?
**Result** 132000
